Cited source: PubChem BioAssay AID1963875

What pIC50 was measured for each of the following?
- Tested on: KRAS-mutant PDC complex spheroid viability
- ASSAY_INFO: Anticancer human tumor 186277-243-T-J2-PDC patient-derived colon adenocarcinoma cell line growth inhibition [KRAS2]
- CONDITION: curve of first compound; second compound 3.16 µM
Reminder that pIC50 is minus the log10 of a molar concentration.

Query: // map COc1cc2nccc(Oc3ccc(NC(=O)C4(C(=O)Nc5ccc(F)cc5)CC4)cc3)c2cc1OC + COc1cc2nc(C)nc(NC(C)c3cc(N)cc(C(F)(F)F)c3)c2cc1OC1CCOC1 to recorded pIC50 (system: KRAS-mutant PDC complex spheroid viability)
Response: 6.14

Query: // map CCN1CCN(Cc2ccc(Nc3ncc(F)c(-c4cc(F)c5nc(C)n(C(C)C)c5c4)n3)nc2)CC1 + CNCc1ccccc1-c1csc(C(C)Nc2nc(C)nc3cc(OC)c(OC)cc23)c1 to recorded pIC50 (system: KRAS-mutant PDC complex spheroid viability)
Response: 6.94

Query: // map CC(C)n1nc(-c2ccc3oc(N)nc3c2)c2c(N)ncnc21 + CC1OCC2(CCN(c3cnc(Sc4ccnc(N)c4Cl)c(N)n3)CC2)C1N to recorded pIC50 (system: KRAS-mutant PDC complex spheroid viability)
Response: 8.30

###

- System: KRAS-mutant PDC complex spheroid viability
- ASSAY_INFO: Anticancer human tumor 186277-243-T-J2-PDC cell line growth inhibition [KRAS2]
- CONDITION: curve of compound
PARAMETER: IC50

Query: For `COc1cc2nccc(Oc3ccc(NC(=O)C4(C(=O)Nc5ccc(F)cc5)CC4)cc3)c2cc1OC` , what is its reported IC50?
Response: 2.02 µM [middle of 4 runs]

Query: For `Cn1ncnc1[C@H]1c2n[nH]c(=O)c3cc(F)cc(c23)N[C@@H]1c1ccc(F)cc1` , what is its reported IC50?
Response: > 100 nM

Query: For `COc1cc(Nc2ncc3c(n2)-c2ccc(Cl)cc2C(c2c(F)cccc2OC)=NC3)ccc1C(=O)O` , what is its reported IC50?
Response: < 31.6 nM

Query: For CC(=O)OC12COC1CC(O)C1(C)C(=O)C(O)C3=C(C)C(OC(=O)C(O)C(NC(=O)OC(C)(C)C)c4ccccc4)CC(O)(C(OC(=O)c4ccccc4)C21)C3(C)C (stereo not drawn) , what is its reported IC50?
Response: < 10 nM

Query: For `CCN1CCN(Cc2ccc(Nc3ncc(F)c(-c4cc(F)c5nc(C)n(C(C)C)c5c4)n3)nc2)CC1` , what is its reported IC50?
Response: > 1000 nM

Query: For `CN(C)C/C=C/C(=O)Nc1cc2c(Nc3ccc(F)c(Cl)c3)ncnc2cc1O[C@H]1CCOC1` , what is its reported IC50?
Response: > 100 nM

Query: For `CC1(C)CCC(CN2CCN(c3ccc(C(=O)NS(=O)(=O)c4ccc(NCC5CCOCC5)c([N+](=O)[O-])c4)c(Oc4cnc5[nH]ccc5c4)c3)CC2)=C(c2ccc(Cl)cc2)C1` , what is its reported IC50?
Response: 2.07 µM [middle of 5 runs]

Query: For CC1OCC2(CCN(c3cnc(Sc4ccnc(N)c4Cl)c(N)n3)CC2)C1N (stereo not drawn) , what is its reported IC50?
Response: > 10000 nM

###

- Test system: KRAS-mutant PDC complex spheroid viability
- ASSAY_INFO: Anticancer human tumor 186277-243-T-J2-PDC cell line growth inhibition [KRAS2]; active means viability on the fitted dose curve at most 10% of control; inactive means the rest
- CONDITION: second compound 0.316 µM; first compound 0.316 µM
Lab note: assign the record to one of active, inactive

Query: Which outcome did this test record for the compound O=C(c1cc(Cc2n[nH]c(=O)c3ccccc23)ccc1F)N1CCN(C(=O)C2CC2)CC1 + CC1OCC2(CCN(c3cnc(Sc4ccnc(N)c4Cl)c(N)n3)CC2)C1N ?
Response: inactive

Query: Which outcome did this test record for the compound CC1OCC2(CCN(c3cnc(Sc4ccnc(N)c4Cl)c(N)n3)CC2)C1N (centres undefined) + CNCc1ccccc1-c1csc(C(C)Nc2nc(C)nc3cc(OC)c(OC)cc23)c1 ?
Response: inactive

Query: Which outcome did this test record for the compound CC(=O)OC12COC1CC(O)C1(C)C(=O)C(O)C3=C(C)C(OC(=O)C(O)C(NC(=O)OC(C)(C)C)c4ccccc4)CC(O)(C(OC(=O)c4ccccc4)C21)C3(C)C (centres undefined) + C=CC(=O)N1CCN(c2nc(=O)n(-c3c(C)ccnc3C(C)C)c3nc(-c4c(O)cccc4F)c(F)cc23)C(C)C1 ?
Response: active

Query: Which outcome did this test record for the compound CC(=O)OC12COC1CC(O)C1(C)C(=O)C(O)C3=C(C)C(OC(=O)C(O)C(NC(=O)OC(C)(C)C)c4ccccc4)CC(O)(C(OC(=O)c4ccccc4)C21)C3(C)C (centres undefined) + COc1cc2nc(C)nc(NC(C)c3cc(N)cc(C(F)(F)F)c3)c2cc1OC1CCOC1 ?
Response: active

Query: Which outcome did this test record for the compound CC(C)NCC(C(=O)N1CCN(c2ncnc3c2C(C)CC3O)CC1)c1ccc(Cl)cc1 (centres undefined) + COc1cc2nc(C)nc(NC(C)c3cc(N)cc(C(F)(F)F)c3)c2cc1OC1CCOC1 ?
Response: inactive

Query: Which outcome did this test record for the compound COC(=O)c1ccc2c(C(=Nc3ccc(N(C)C(=O)CN4CCN(C)CC4)cc3)c3ccccc3)c(O)[nH]c2c1 + C=CC(=O)N1CCN(c2nc(=O)n(-c3c(C)ccnc3C(C)C)c3nc(-c4c(O)cccc4F)c(F)cc23)C(C)C1 ?
Response: inactive

Query: Which outcome did this test record for the compound CC1OCC2(CCN(c3cnc(Sc4ccnc(N)c4Cl)c(N)n3)CC2)C1N (centres undefined) + COc1cc2nc(C)nc(NC(C)c3cc(N)cc(C(F)(F)F)c3)c2cc1OC1CCOC1 ?
Response: inactive

Query: Which outcome did this test record for the compound CC1(C)CCC(CN2CCN(c3ccc(C(=O)NS(=O)(=O)c4ccc(NCC5CCOCC5)c([N+](=O)[O-])c4)c(Oc4cnc5[nH]ccc5c4)c3)CC2)=C(c2ccc(Cl)cc2)C1 + CNCc1ccccc1-c1csc(C(C)Nc2nc(C)nc3cc(OC)c(OC)cc23)c1 ?
Response: inactive

Query: Which outcome did this test record for the compound CC(C)NCC(C(=O)N1CCN(c2ncnc3c2C(C)CC3O)CC1)c1ccc(Cl)cc1 (centres undefined) + C=CC(=O)N1CCN(c2nc(=O)n(-c3c(C)ccnc3C(C)C)c3nc(-c4c(O)cccc4F)c(F)cc23)C(C)C1 ?
Response: inactive

Query: Which outcome did this test record for the compound CCN1CCN(Cc2ccc(Nc3ncc(F)c(-c4cc(F)c5nc(C)n(C(C)C)c5c4)n3)nc2)CC1 + C=CC(=O)N1CCN(c2nc(=O)n(-c3c(C)ccnc3C(C)C)c3nc(-c4c(O)cccc4F)c(F)cc23)C(C)C1 ?
Response: inactive

Query: Which outcome did this test record for the compound CC1(C)CCC(CN2CCN(c3ccc(C(=O)NS(=O)(=O)c4ccc(NCC5CCOCC5)c([N+](=O)[O-])c4)c(Oc4cnc5[nH]ccc5c4)c3)CC2)=C(c2ccc(Cl)cc2)C1 + COc1cc2nc(C)nc(NC(C)c3cc(N)cc(C(F)(F)F)c3)c2cc1OC1CCOC1 ?
Response: inactive

Query: Which outcome did this test record for the compound CC1OCC2(CCN(c3cnc(Sc4ccnc(N)c4Cl)c(N)n3)CC2)C1N (centres undefined) + C=CC(=O)N1CCN(c2nc(=O)n(-c3c(C)ccnc3C(C)C)c3nc(-c4c(O)cccc4F)c(F)cc23)C(C)C1 ?
Response: inactive

Query: Which outcome did this test record for the compound COc1cc(Nc2ncc3c(n2)-c2ccc(Cl)cc2C(c2c(F)cccc2OC)=NC3)ccc1C(=O)O + C=CC(=O)N1CCN(c2nc(=O)n(-c3c(C)ccnc3C(C)C)c3nc(-c4c(O)cccc4F)c(F)cc23)C(C)C1 ?
Response: inactive

Query: Which outcome did this test record for the compound CC(=O)OC12COC1CC(O)C1(C)C(=O)C(O)C3=C(C)C(OC(=O)C(O)C(NC(=O)OC(C)(C)C)c4ccccc4)CC(O)(C(OC(=O)c4ccccc4)C21)C3(C)C (centres undefined) + C=CC(=O)N1CCN(c2nc(OCC3CCCN3C)nc3c2CCN(c2cccc4cccc(C)c24)C3)CC1CC#N ?
Response: active

Query: Which outcome did this test record for the compound CC(C)NCC(C(=O)N1CCN(c2ncnc3c2C(C)CC3O)CC1)c1ccc(Cl)cc1 (centres undefined) + CNCc1ccccc1-c1csc(C(C)Nc2nc(C)nc3cc(OC)c(OC)cc23)c1 ?
Response: inactive

Query: Which outcome did this test record for the compound O=C(c1cc(Cc2n[nH]c(=O)c3ccccc23)ccc1F)N1CCN(C(=O)C2CC2)CC1 + C=CC(=O)N1CCN(c2nc(OCC3CCCN3C)nc3c2CCN(c2cccc4cccc(C)c24)C3)CC1CC#N ?
Response: inactive

Query: Which outcome did this test record for the compound CC1COCCN1c1cc(-c2ccnn2C)c2ccnc(-c3ccn[nH]3)c2n1 (centres undefined) + CNCc1ccccc1-c1csc(C(C)Nc2nc(C)nc3cc(OC)c(OC)cc23)c1 ?
Response: active

Query: Which outcome did this test record for the compound CC1COCCN1c1cc(-c2ccnn2C)c2ccnc(-c3ccn[nH]3)c2n1 (centres undefined) + C=CC(=O)N1CCN(c2nc(OCC3CCCN3C)nc3c2CCN(c2cccc4cccc(C)c24)C3)CC1CC#N ?
Response: active

Query: Which outcome did this test record for the compound COC(=O)c1ccc2c(C(=Nc3ccc(N(C)C(=O)CN4CCN(C)CC4)cc3)c3ccccc3)c(O)[nH]c2c1 + C=CC(=O)N1CCN(c2nc(OCC3CCCN3C)nc3c2CCN(c2cccc4cccc(C)c24)C3)CC1CC#N ?
Response: inactive
